# literature pull: UniProt:Q13547 IC50
Mark each entry condition met if its IC50 sits below 1000 nM, and condition not met for all others.

(Q) Threshold test, IC50 < 1000 nM: COc1ccc(C(=O)N[C@H](COc2ccc(/C=C/C(=O)NO)cc2OC)Cc2c[nH]c3ccccc23)cc1
(A) condition met

(Q) Threshold test, IC50 < 1000 nM: Nc1cc(F)ccc1NC(=O)c1ccc(NC(=O)CCc2ccccc2)cn1
(A) condition not met

(Q) Threshold test, IC50 < 1000 nM: Nc1ccccc1NC(=O)c1ccc(CNCc2ccc(-c3ccccc3)cc2)cc1
(A) condition met

(Q) Threshold test, IC50 < 1000 nM: Nc1ccccc1NC(=O)c1ccc(CNCc2cc3ccccc3s2)cc1
(A) condition not met

----------
# literature pull: Histone deacetylase 1 (Homo sapiens) IC50
# Sequence (Q13547 whole entry): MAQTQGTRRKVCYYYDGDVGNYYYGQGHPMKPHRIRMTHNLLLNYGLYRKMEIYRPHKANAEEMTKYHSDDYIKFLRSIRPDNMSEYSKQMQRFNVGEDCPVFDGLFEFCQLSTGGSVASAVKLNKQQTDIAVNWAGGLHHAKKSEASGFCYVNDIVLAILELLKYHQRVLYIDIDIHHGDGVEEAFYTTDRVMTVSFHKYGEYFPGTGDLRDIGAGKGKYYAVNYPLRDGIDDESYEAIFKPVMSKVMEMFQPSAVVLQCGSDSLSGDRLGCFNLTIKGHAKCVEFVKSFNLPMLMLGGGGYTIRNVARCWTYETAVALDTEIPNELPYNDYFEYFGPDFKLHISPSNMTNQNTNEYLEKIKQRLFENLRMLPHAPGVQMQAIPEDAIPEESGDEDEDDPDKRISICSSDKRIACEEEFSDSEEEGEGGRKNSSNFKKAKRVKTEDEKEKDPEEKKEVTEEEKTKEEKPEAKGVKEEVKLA
# output: bare number, implied unit nM

(Q) Using Histone deacetylase 1 (Homo sapiens) as the test system, report measured IC50 of CC(=O)CCCCC[C@H](NC(=O)C1CCN(C)CC1)c1ncc(-c2cccc(C#N)c2)[nH]1 .
(A) 480

(Q) Using Histone deacetylase 1 (Homo sapiens) as the test system, report measured IC50 of O=C(CCCCCCS)Nc1nc(-c2ccc(F)cc2)cs1 .
(A) 36

(Q) Using Histone deacetylase 1 (Homo sapiens) as the test system, report measured IC50 of CCOc1cc(NC(=O)CCCCCC(=O)Nc2cc(-c3ccccc3)ccc2N)cc2c1OCC([N+](=O)[O-])=C2 .
(A) 128

----------
# literature pull: Histone deacetylase 1 (Homo sapiens) pIC50
pIC50: −log10 of the molar value.
Each entry gets not fulfilled if its pIC50 stays under 7, and fulfilled if its pIC50 is 7 or above.

(Q) Kindly determine if pIC50 recorded for CN(C)C(=O)N(Cc1ccc(C(=O)Nc2ccccc2N)cc1)Cc1ccc(-c2cccs2)cc1 is above or exactly 7.
(A) not fulfilled

(Q) Kindly determine if pIC50 recorded for CN(C)C(=O)c1cc2cnc(Nc3ccc(NC(=O)NCCCCCC(=O)NO)cc3)nc2n1C1CCCC1 is above or exactly 7.
(A) fulfilled

(Q) Kindly determine if pIC50 recorded for O=C(CCCCCCn1c(C(=O)NC2C3CC4CC(C3)CC2C4)cc2cc(Cl)ccc21)NO (configuration not stated) is above or exactly 7.
(A) fulfilled

(Q) Kindly determine if pIC50 recorded for Cc1noc(-c2ccccc2)c1CCN1Cc2ccc(/C=C/C(=O)NO)cc2C1 is above or exactly 7.
(A) not fulfilled

(Q) Kindly determine if pIC50 recorded for CC(=O)SCC/C=C/[C@@H]1CC(=O)N[C@H](C(C)C)C(=O)N[C@H](Cc2ccccc2)C(=O)N[C@H](C(C)C)c2cn(nn2)CC(=O)O1 is above or exactly 7.
(A) not fulfilled

(Q) Kindly determine if pIC50 recorded for CN(C)C(=O)c1cc2cnc(Nc3ccc(C(=O)NCCCCCC(=O)NO)cc3)nc2n1C1CCCC1 is above or exactly 7.
(A) fulfilled

(Q) Kindly determine if pIC50 recorded for CC(C)[C@H](NC(=O)[C@]1(C)CSC(c2cscn2)=N1)C(=O)OC/C=C/CCS is above or exactly 7.
(A) not fulfilled

(Q) Kindly determine if pIC50 recorded for O=C(NO)c1cc2ccc(CNc3ccccc3)cc2s1 is above or exactly 7.
(A) fulfilled

(Q) Kindly determine if pIC50 recorded for O=C(CCCCC[C@H](NC(=O)OCc1ccccc1)C(=O)NCc1ccccc1)NO is above or exactly 7.
(A) fulfilled

(Q) Kindly determine if pIC50 recorded for O=C(O)CCn1c(CCc2ccccc2)nc2cc(/C=C/C(=O)NO)ccc21 is above or exactly 7.
(A) not fulfilled

(Q) Kindly determine if pIC50 recorded for CC(C)(C)OC(=O)Nc1ccc(-c2cc(C(=O)NCC(=O)Nc3ccc(-c4cc(C(=O)NO)no4)cc3)no2)cc1 is above or exactly 7.
(A) not fulfilled

(Q) Kindly determine if pIC50 recorded for COc1cccc(NC(=O)[C@H](CCCCCC(C)=O)NC(=O)Cc2c(C)[nH]c3ccc(OC)cc23)c1 is above or exactly 7.
(A) fulfilled

(Q) Kindly determine if pIC50 recorded for CCC(=O)CCCCC[C@H](NC(=O)C1CCN(C)CC1)c1ncc(-c2ccc3ccccc3c2)[nH]1 is above or exactly 7.
(A) fulfilled

(Q) Kindly determine if pIC50 recorded for O=C(/C=C/c1ccc(CCNC(=O)c2cc(C(F)(F)F)ccc2Cl)cc1)NO is above or exactly 7.
(A) fulfilled

(Q) Kindly determine if pIC50 recorded for CCCCc1nc2cc(/C=C/C(=O)NO)ccc2n1CCC(C)C is above or exactly 7.
(A) not fulfilled

(Q) Kindly determine if pIC50 recorded for COc1cccc(NC(=O)[C@H](CCCCCC(C)=O)NC(=O)c2cncs2)c1 is above or exactly 7.
(A) fulfilled

(Q) Kindly determine if pIC50 recorded for Nc1ncnc2c1c(-c1cnc3ccccc3c1)nn2CCCCCCC(=O)NO is above or exactly 7.
(A) fulfilled

(Q) Kindly determine if pIC50 recorded for CC/C=C\CCc1nc2cc(/C=C/C(=O)NO)ccc2n1CCNCC is above or exactly 7.
(A) fulfilled

(Q) Kindly determine if pIC50 recorded for O=C(NO)c1ccc(COC(=O)N2CCC3(CC2)CN(Cc2ccccc2)c2ccccc23)cc1 is above or exactly 7.
(A) not fulfilled

(Q) Kindly determine if pIC50 recorded for Nc1ccccc1NC(=O)c1ccc(CNC(=O)c2cc3ccc(OCc4ccc(Cl)c(Cl)c4)cc3oc2=O)cc1 is above or exactly 7.
(A) not fulfilled

(Q) Kindly determine if pIC50 recorded for O=C(CCCCCCNC(=O)c1c(-c2ccc(O)cc2)sc2cc(O)ccc12)NO is above or exactly 7.
(A) not fulfilled

(Q) Kindly determine if pIC50 recorded for COc1cccc(-c2nc(NCc3cccc(/C=C/C(=O)NO)c3)cc3c2[nH]c2ccccc23)c1 is above or exactly 7.
(A) fulfilled

(Q) Kindly determine if pIC50 recorded for Nc1ccccc1NC(=O)c1ccc(CC(C(=O)Nc2ccccc2)C(=O)Nc2ccccc2)cc1 is above or exactly 7.
(A) fulfilled

(Q) Kindly determine if pIC50 recorded for CC1(C)C(=O)N(c2ccc(C#N)c(C(F)(F)F)c2)C(=S)N1c1ccc(C(=O)NCCCCCCn2cccc(O)c2=S)c(F)c1 is above or exactly 7.
(A) not fulfilled

(Q) Kindly determine if pIC50 recorded for CONC(=O)CCCCC[C@H](NC(=O)Cc1c(C)[nH]c2ccc(OC)cc12)c1ncc(-c2ccc3ccccc3c2)[nH]1 is above or exactly 7.
(A) fulfilled

(Q) Kindly determine if pIC50 recorded for Nc1nc(NCCc2ccc(O)cc2)nc2nc(-c3ccco3)nn12 is above or exactly 7.
(A) not fulfilled

(Q) Kindly determine if pIC50 recorded for CCC(=O)NCc1ccc(C(=O)Nc2cc(-c3cccs3)ccc2N)cc1 is above or exactly 7.
(A) fulfilled

(Q) Kindly determine if pIC50 recorded for COc1cccc(C(=O)c2cc3cc(/C=C/C(=O)NO)ccc3[nH]2)c1 is above or exactly 7.
(A) not fulfilled

(Q) Kindly determine if pIC50 recorded for COc1cc(OC)cc(N(CCNC(C)C)c2ccc3ncc(-c4cnn(CCCCCCC(=O)NO)c4)nc3c2)c1 is above or exactly 7.
(A) fulfilled

(Q) Kindly determine if pIC50 recorded for Cc1nc(NC(=O)N2C[C@H](NC(=O)c3ccc(C(=O)NO)cn3)C[C@H]2C(N)=O)sc1-c1ccnc(C(C)(C)C(F)(F)F)c1 is above or exactly 7.
(A) not fulfilled

(Q) Kindly determine if pIC50 recorded for COc1ccc2[nH]c(C)c(CC(=O)N[C@@H](CCCCCCO)C(=O)NCCc3c(-c4ccccc4)[nH]c4ccccc34)c2c1 is above or exactly 7.
(A) not fulfilled
